Values from patent US9963445B2

Test system: Alopecurus myosuroides
Assay: Pre-emergence herbicidal activity, glasshouse pot test
Assay type: in vivo
Settings: pre-emergence spray, rate 1000 g/ha, evaluated after 13 days, scale 0-5
PROPERTY: ALOMY damage score, application pre-emergence
No unit in the answer, only the number.

# MOLECULE, SYSTEM_TESTED, VALUE_MEASURED
measured = [
    ("COC1=C(OC)C(O)N(c2cc(F)ccn2)C1=O (centres unmarked) [AK3]", "Alopecurus myosuroides", 2),
    ("COC1=C(OC)C(O)N(c2cc(Br)ccn2)C1=O (centres unmarked) [AK5]", "Alopecurus myosuroides", 1),
    ("CSc1ccc(N2C(=O)C(Cl)=C(C)C2OC(C)=O)nc1 (centres unmarked) [AF19]", "Alopecurus myosuroides", 0),
]

Reported ALOMY damage score, application pre-emergence for COC1=C(C)C(O)N(c2cc(C(F)(F)F)c(Cl)nn2)C1=O (centres unmarked) [BI9] : what is it? 4

Reported ALOMY damage score, application pre-emergence for COC1=C(C)C(O)N(c2cc(C)c(C(=O)NC(C)C(C)C)cn2)C1=O (centres unmarked) [AI36] : what is it? 4

Reported ALOMY damage score, application pre-emergence for CCOC(=O)c1ccc(N2C(=O)C(OC)=C(C)C2O)nn1 (centres unmarked) [BI4] : what is it? 0

Reported ALOMY damage score, application pre-emergence for COC1=C(C)C(O)N(c2cc(C(C)(C)F)c(Cl)nn2)C1=O (centres unmarked) [BI14] : what is it? 3

* * *

The following compounds are listed with their measured ALOMY damage score, application pre-emergence values.
Tested on: Alopecurus myosuroides
Experiment: Pre-emergence herbicidal activity, glasshouse pot test
Format: in vivo
Details: pre-emergence spray, rate 1000 g/ha, evaluated after 13 days, scale 0-5
No unit in the answer, only the number.

Reported ALOMY damage score, application pre-emergence for CC1=C(Cl)C(=O)N(c2cc(C(F)(F)F)c(-c3nn(C)c4ccccc34)cn2)C1O (centres unmarked) [AF105] : what is it? 0

Reported ALOMY damage score, application pre-emergence for CC1=C(Cl)C(=O)N(c2cc(F)ccn2)C1O (centres unmarked) [AF39] : what is it? 3

Reported ALOMY damage score, application pre-emergence for COC1=C(OC)C(O)N(c2cc(OC)ccn2)C1=O (centres unmarked) [AK6] : what is it? 0

Reported ALOMY damage score, application pre-emergence for CC1=C(Cl)C(=O)N(c2cc(OC(C)C)ncn2)C1O (centres unmarked) [CF5] : what is it? 3

Reported ALOMY damage score, application pre-emergence for CC1=C(Cl)C(=O)N(c2ccc(F)cn2)C1O (centres unmarked) [AF67] : what is it? 2

Reported ALOMY damage score, application pre-emergence for COC1=C(C)C(O)N(c2cc(C(F)(F)F)c(OC)cn2)C1=O (centres unmarked) [AI15] : what is it? 4

Reported ALOMY damage score, application pre-emergence for CC1=C(Cl)C(=O)N(c2cc(C(C)(C)C)ncn2)C1O (centres unmarked) [CF2] : what is it? 4

Reported ALOMY damage score, application pre-emergence for COC1=C(C)C(O)N(c2cc(C(F)(F)F)c(C(=O)CC#N)cn2)C1=O (centres unmarked) [AI38] : what is it? 3

* * *

System: Setaria faberi
Assay: Post-emergence herbicidal activity, glasshouse pot test
Format: in vivo
Design: key: 0 = no damage to plant, 5 = total damage to plant
Details: Application post-emergence, rate 1000 g/ha, evaluated after 13 days
The following compounds are listed with their measured SETFA herbicidal damage score values.
No unit in the answer, only the number.

A selection of reference data follows.
# COMPOUND, SETFA herbicidal damage score
measured = [
    ("CC1=C(Cl)C(=O)N(c2nccc(C(F)(F)F)n2)C1O (stereo not drawn) [DF1]", 5),
    ("COC1=C(C)C(O)N(c2cc3c(nn2)CCCC3)C1=O (stereo not drawn) [BI3]", 5),
    ("CC1=C(Cl)C(=O)N(c2cc(C(C)(C)F)ccn2)C1O (stereo not drawn) [AF31]", 5),
    ("CC1=C(Cl)C(=O)N(c2cc(C(C)(C)C)ncn2)C1O (stereo not drawn) [CF2]", 5),
    ("CCOc1nc(N2C(=O)C(Cl)=C(C)C2O)ncc1C#N (stereo not drawn) [DF4]", 0),
]

Reported SETFA herbicidal damage score for COC1=C(C)C(O)N(c2cc(C(F)(F)F)c(Cl)nn2)C1=O (stereo not drawn) [BI9] : what is it? 5

Reported SETFA herbicidal damage score for CC1=C(Cl)C(=O)N(c2cc(C(F)(F)F)cc(Cl)n2)C1O (stereo not drawn) [AF37] : what is it? 4

Reported SETFA herbicidal damage score for CC1=C(Cl)C(=O)N(c2cc(C(F)(F)F)cc[n+]2[O-])C1O (stereo not drawn) [AF28] : what is it? 3

Reported SETFA herbicidal damage score for CCN(CC)C(=O)c1cnc(N2C(=O)C(Cl)=C(C)C2O)cc1C(F)(F)F (stereo not drawn) [AF96] : what is it? 0

Reported SETFA herbicidal damage score for COC1=C(Br)C(=O)N(c2cc(C(F)(F)F)ccn2)C1O (stereo not drawn) [AJ1] : what is it? 5

Reported SETFA herbicidal damage score for COC1=C(C)C(O)N(c2cc(C(C)(F)F)c(-c3ccc(C)c(F)c3)nn2)C1=O (stereo not drawn) [BI20] : what is it? 4
